system: DMS-114; test: NCI tumour cell line growth inhibition, 48 h
Activity calls are given as the source filed them. Cut-off read from the data, not from the text of the source: active = GI50 up to about 1.1 µM and inactive = higher.

# Compound, GI50
records = [
    ("CC(=O)C(CN(C(C)C)C(C)C)C(c1ccccc1)c1c(O)c2ccccc2oc1=O (stereo not drawn)", "> 100 µM (inactive)"),
    ("CC1CCCP(=O)(c2ccccc2)CC1 (stereo not drawn)", "> 100 µM (inactive)"),
    ("Cc1ccc2c(c1)C1C(CO2)C(c2ccccc2)=NN1c1ccccc1 (stereo not drawn)", "> 100 µM (inactive)"),
]

----------
system: K562; assay: NCI tumour cell line growth inhibition, 48 h
The source made the active and inactive calls. Cut-off read from the data, not from the text of the source: active = GI50 up to about 1.1 µM and inactive = higher.
Outcomes: active, inactive

# Compound, Target or system, Label
data = [
    ("O=C(O)CCC(NC(=O)c1ccc(Nc2cnc3cc(C(F)(F)F)ccc3n2)cc1)C(=O)O (stereo not drawn)", "K562", "inactive"),
    ("COc1ccc(C2=C(Cl)c3cc(OC)c(OC)cc3C2)cc1OC", "K562", "inactive"),
    ("CNC(=O)OCc1nccc2c(C)c3[nH]c4ccc(OC)cc4c3cc12", "K562", "inactive"),
    ("COc1cc(/C=N\\O)nc(-c2ccccn2)c1", "K562", "active"),
    ("Nc1nc(Cl)c(N)c(NCC2(CO)CCC(CCc3ccccc3)C2)n1 (stereo not drawn)", "K562", "active"),
    ("CC(CO)CCNc1ncnc2c1ncn2CCC(=O)O (stereo not drawn)", "K562", "inactive"),
    ("COC(=O)C(C(=O)C(=O)NC1Nc2ccc(C)cc2S1)c1nc2ccc(Cl)cc2nc1O (stereo not drawn)", "K562", "inactive"),
    ("[O-][Cl+3]([O-])([O-])O.c1ccc(/N=c2\\nc(N3CCOCC3)ss2)cc1", "K562", "inactive"),
    ("O=C1OC2(c3ccc(O)cc3Oc3cc(O)ccc32)c2c1c(-c1ccccc1)c(-c1ccccc1)c(-c1ccccc1)c2-c1ccccc1", "K562", "inactive"),
    ("CC1(C)OC(C(N)=O)=C(C(N)=O)O1", "K562", "inactive"),
    ("Clc1nc(Cl)c(CBr)c(Cl)n1", "K562", "inactive"),
    ("[O-]c1c[n+](CC[n+]2cc([O-])on2)no1", "K562", "inactive"),
    ("O=C(NN1C(=O)CSC1c1ccc(Cl)c(Cl)c1)c1ccncc1 (stereo not drawn)", "K562", "inactive"),
    ("COc1c(CC=C(C)C)c(O)c(C(CC(C)C)c2c(O)c(CC=C(C)C)c(O)c(C(C)=O)c2O)c(O)c1C(C)=O (stereo not drawn)", "K562", "active"),
    ("CN(C)CC1(Cc2ccccc2)CCC(Cc2ccccc2)C1=O (stereo not drawn)", "K562", "inactive"),
    ("CC(CC[C@@H](C)C1CCC2[C@@H]3CC(O)C4CC(O)[C@@H](O)C[C@]4(C)C3CC[C@@]21C)C(C)(C)C (stereo partly drawn)", "K562", "inactive"),
    ("c1cc(Sc2nc(Sc3ccncc3)nc(Sc3ccncc3)n2)ccn1", "K562", "inactive"),
    ("Cc1ccccc1NC(=S)N/N=C1\\C(=O)Nc2ccccc21", "K562", "inactive"),
    ("COc1cc(/C=C2\\CCC(C)C3=C(c4cc(OC)c(OC)c(OC)c4)C(C#N)=C(N)OC32)cc(OC)c1OC (stereo not drawn)", "K562", "inactive"),
    ("Cc1ccc(N2C(=O)/C(=C3\\Sc4c(nc(C)n(C)c4=O)N3c3ccccc3)SC2=S)cc1", "K562", "inactive"),
    ("CC(C(=O)c1ccncc1)c1ccccn1 (stereo not drawn)", "K562", "inactive"),
    ("CC1=NN(C(=O)c2ccccc2O)C(=O)/C1=C/c1ccccc1O", "K562", "active"),
    ("CN(C)C(=O)O/N=C1/C(=C2/C(=O)Nc3ccccc32)Nc2ccccc21", "K562", "inactive"),
    ("O=C1CC(=O)NC(NNS(=O)(=O)c2ccccc2)=N1", "K562", "inactive"),
    ("Cc1ccc(S(=O)OC23CC4CC(CC(C4)C2)C3)cc1 (stereo not drawn)", "K562", "inactive"),
    ("O=[N+]([O-])C(C(Cl)=C(Cl)Cl)=C(n1nnc2ccccc21)n1nnc2ccccc21", "K562", "inactive"),
    ("O=C(NNCc1ccco1)c1cc2ccccc2[nH]1", "K562", "inactive"),
    ("COc1cc(/C=C2\\[C@@H]3NC(Cc4c(OC)c(C)c(OC)c(OC)c43)C(=O)N2Cc2ccccc2)c(OC)c(C)c1OC", "K562", "inactive"),
    ("O=C1OC(c2ccccc2)=N/C1=C\\c1ccc(F)cc1", "K562", "inactive"),
    ("O=C1CSC(c2c[nH]c3ccccc23)N1c1ccccc1[N+](=O)[O-] (stereo not drawn)", "K562", "inactive"),
    ("CCCCCCC(=O)OC[n+]1ccc(-c2c(COC(=O)NC(C)C)c(COC(=O)NC(C)C)c3n2CCC3)cc1", "K562", "inactive"),
    ("COc1ccc(/C=N/Nc2nc3ccccc3c(=O)n2-c2ccccc2)cc1", "K562", "inactive"),
    ("c1ccc2c[n+](CCCC[n+]3ccc4ccccc4c3)ccc2c1", "K562", "inactive"),
    ("COc1ccc2c(c1)C(OC)C1c3c(cc4c(c3-2)OCO4)CCN1C (stereo not drawn)", "K562", "inactive"),
    ("COc1cc2c[n+](C)c3c(c2cc1OC)Cc1cc2c(cc1-3)OCO2", "K562", "inactive"),
    ("O=C1c2cscc2C(=O)c2c(OCc3ccccc3)ccc(OCc3ccccc3)c21", "K562", "inactive"),
    ("COC1(OC)CCC2(C)OC(c3ccccc3)C1O2 (stereo not drawn)", "K562", "inactive"),
    ("CC(=O)c1ccc(NC(=O)/C(CC(=O)c2sc(-c3cccnc3)nc2C)=N/NC(N)=O)cc1", "K562", "inactive"),
    ("O=C1NC(=N/c2ccccc2)/C(=N\\c2ccccc2)N1c1ccccc1", "K562", "inactive"),
    ("CC(=O)CC(=O)Nc1ccc(OS(N)(=O)=O)cc1", "K562", "inactive"),
    ("O=C(Nc1ccccc1C(=O)NCc1ccccc1)/C(=C/c1ccccc1)NC(=O)c1ccccc1", "K562", "inactive"),
    ("Cc1cc(Cl)ccc1NC(=O)CCCC(=O)C(C(=O)c1ccccc1)c1ccccc1 (stereo not drawn)", "K562", "inactive"),
    ("O=[N+]([O-])c1cccc2nccc(NCCCO)c12", "K562", "inactive"),
]
